System: SR leukemia
Assay: NCI-60 one-dose screen, 48 h (100 = growth as untreated, 0 = no growth, -100 = all killed)
Conditions: 10 µM unless noted
Compounds without any hit were thinned out: in the full panel of roughly 83,000, 20% have a hit.
Listing of recorded growth by entry.
Measured metric: growth (%)

- CC(C)(C)c1ccc(C(=O)Nc2nc3ccc(O)cc3s2)cc1: 24.7
- c1ccc(C(c2nc3ncncc3[nH]2)N2CSc3nc4ncncc4n3C2)cc1 (stereo unspecified): 84.9
- CCO/C=N/C1=C(C#N)C(c2ccc(F)cc2)c2sc3c(CC)cccc3c2O1 (stereo unspecified): 6.82
- NS(=O)(=O)c1ccc(Nc2nc(N/N=C/c3c[nH]c4ccccc34)nc(Nc3ccccc3)n2)cc1: 12.1
- C#Cc1nc(/C=C/C(=O)c2nccn2C)cs1: -40.8
- Cc1ccc2c(c1)C13C(=C2Br)CCCN1C(=O)c1ccccc13 (stereo unspecified): 47.2
- Cc1nc(-c2ccccc2O)ccc1C(=O)N=Nc1c(O)[nH]c2ccc(Br)cc12: 101
- O=C(Nc1nc2ccc([N+](=O)[O-])cc2s1)Nc1ccccc1Cl: 18.1
- CCCCNNC(=O)c1ccc(-c2cccc(F)c2F)cc1: 25.2
- CCn1c(SCC(=O)Nc2cccc(C(=O)/C=C/c3cc(OC)c(OC)c(OC)c3)c2)nc2ccccc2c1=O: 5.81
- COc1ccc(N2C(=O)c3cc(Cl)ccc3NC2SCc2ccccc2)cc1 (stereo unspecified): 103
- COc1ccc(C2CC(c3cccc(Nc4nc(Cl)nc5cc(OC)c(OC)cc45)c3)=Nc3c(N)nc(N)nc3N2)cc1 (stereo unspecified): 3.81
- COc1cc2c(cc1OC)C(Sc1ccc(C)cc1)c1c(nc(N)c(C#N)c1N)O2 (stereo unspecified): -4.56
- COc1ccc(/C(N)=N/C(N)=N/c2nc3ccccc3s2)cc1: 13.4
- C#CC(=O)N(c1ccc(OC)cc1OC)C(C(=O)NCC(=O)OCC)c1cccs1 (stereo unspecified): -25
- COc1cccc(O)c1/C=C(/C)c1ccc2c(OC)cccc2[o+]1: 87.6
- COc1ccc(NCc2cn(-c3ccc(C(=O)O)cc3)nc2-c2cc(C(F)(F)F)cc(C(F)(F)F)c2)cc1: 112
- Nc1nc(-c2cccc([N+](=O)[O-])c2)c(N=Nc2ccccc2)s1: 56.1
- Cc1ccc(-c2cc3nc(C(Cl)Cl)nc(-c4cccs4)n3n2)cc1: 108
- O=c1[nH]c(Sc2sc3ccc(Cl)cc3c2CBr)nc(=S)[nH]1: 7.03
- COc1cc(-c2nc(SCCC(C)C)nc(NNC(=O)c3ccncc3)c2C#N)cc(OC)c1OC: 105
